# system.name: MEK1 (Homo sapiens, UniProt Q02750)
# Construct: purchased Invitrogen (SelectScreen service)
# Sequence (Q02750 whole entry): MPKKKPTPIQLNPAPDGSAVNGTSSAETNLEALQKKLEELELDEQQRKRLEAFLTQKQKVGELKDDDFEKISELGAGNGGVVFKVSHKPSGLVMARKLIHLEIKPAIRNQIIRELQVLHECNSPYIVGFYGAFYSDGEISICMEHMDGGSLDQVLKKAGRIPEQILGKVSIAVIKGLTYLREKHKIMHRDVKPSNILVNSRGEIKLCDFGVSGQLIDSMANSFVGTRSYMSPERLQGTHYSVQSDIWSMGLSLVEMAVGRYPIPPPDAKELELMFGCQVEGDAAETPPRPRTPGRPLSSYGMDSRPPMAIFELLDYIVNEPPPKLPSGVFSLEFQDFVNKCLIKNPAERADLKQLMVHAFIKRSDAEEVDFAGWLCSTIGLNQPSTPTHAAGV
# method: Invitrogen SelectScreen biochemical assay
metric.name: pIC50
Numbers only, as −log10 of the molar value.

Q. Please state recorded pIC50 (tested on MEK1 (Homo sapiens, UniProt Q02750)) of C=CC(=O)N1CCC[C@@H](n2nc(-c3ccc(OCc4cccc(C)n4)c(Cl)c3)c3c(N)ncnc32)C1
A. 6.88

* * *

# method: Pharmacokinetic properties in rats
# Format: in vivo
# assay.conditions: rat, in vivo, iv, I.V (1mg/kg)
metric.name: Cmax
Write the numeric value and follow it with the unit.

Q. I would be grateful if you could share the reported Cmax for C=CC(=O)N1CCC[C@@H](n2nc(-c3ccc(OCc4cccc(C)n4)c(Cl)c3)c3c(N)ncnc32)C1 [CHMFL-EGFR-26] .
A. 10600 ng/mL
